Values from PubChem BioAssay AID1159580

ASSAY: chemical genetic growth profiling, strain panel (AID 1159580);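 also: tested at 20 µM; growth read once vehicle control cultures reached saturation at 30 °C; 1 = growth at the plate median or of vehicle wells; lower values mean less growth of the strain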
CONDITION SUMMARY: S. cerevisiae deletion strains, growth OD, locus YPL055C, strain LGE1, stronger effect = lower value
Screen size: about 5,500 compounds; about 2,000 (36%) were called active. Roughly 18% stayed inconclusive and do not appear here. The list shows a part of the results.
Hi! Just check whether normalized growth is below 1. Below gives rule met, equal or above gives rule not met.

O=C(NC(c1ccccc1)C(N=Cc1ccccc1)c1ccccc1)c1ccccc1 (configuration not stated) :: rule met
CC(O)CNc1ccc(C(F)(F)F)cc1[N+](=O)[O-] (configuration not stated) :: rule met
O=C(O)c1cc2cc(Cl)ccc2[nH]1 :: rule not met
COc1cccc(CC(=O)NN)c1 :: rule met
O=C(NCCNc1ccc(C(F)(F)F)cc1[N+](=O)[O-])c1cccs1 :: rule met
O=c1[nH]cnc2nc[nH]c12 :: rule not met

*Q* # check: normalized growth < 1 for CCN(CC)CCNC(=O)COc1ccc(OC)cc1
*A* rule met

====

ASSAY: chemical genetic growth profiling, strain panel (AID 1159580)
CONDITION SUMMARY: S. cerevisiae deletion strains, growth OD, locus YOR083W, strain WHI5 (second series), stronger effect = lower value
Among all 5,500 compounds or so, about 2,000 (36%) were called active. Inconclusive results (about 18%) are left out. Some of the results follow.
READOUT TYPE: normalized growth
API doc: respond with a numeric literal and nothing else, no unit.

Here's what some known entries look like.
CN(C)c1nc(N(C)C)nc(N(C)C)n1 :: 1.03
Nc1nc2c(nc(Br)n2C2OC3COP(=O)(O)O[C@@H]3C2O)c(=O)[nH]1 (stereo partly drawn) :: 1.02
C[C@]12CC[C@@H](O)CC1CC[C@@H]1[C@@H]2CC[C@]2(C)C(=O)CC[C@@H]12 (stereo partly drawn) :: 0.885
CNCCNS(=O)(=O)c1cccc2cnccc12 :: 1
OCCN1CCN(CCCN2c3ccccc3Sc3ccc(Cl)cc32)CC1 :: 0.973

Per the records, this compound ( CN1Cc2c(N)cccc2C(c2ccccc2)C1 (stereo not drawn) ) has normalized growth equal to 0.983

Per the records, this compound ( CC(C)(C)[C@]1(O)CCN2C[C@H]3c4ccccc4CCc4cccc(c43)[C@@H]2C1 ) has normalized growth equal to 1.05

Per the records, this compound ( CSc1nc(N)c2ncn([C@@H]3O[C@H](COP(=O)(O)OP(=O)(O)O)[C@H](O)C3O)c2n1 (stereo partly drawn) ) has normalized growth equal to 1.02

Per the records, this compound ( N[C@@H](CCCC(=O)O)C(=O)O ) has normalized growth equal to 0.993

Per the records, this compound ( CCCN(CCC)[C@@H]1CCc2cccc(O)c2C1 ) has normalized growth equal to 1.01

Per the records, this compound ( CN1CCN(CCCN2c3ccccc3Sc3ccc(Cl)cc32)CC1 ) has normalized growth equal to 0.652

Per the records, this compound ( NOCC(=O)O ) has normalized growth equal to 0.993

====

ASSAY: chemical genetic growth profiling, strain panel (AID 1159580);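 also: tested at 20 µM; growth read once vehicle control cultures reached saturation at 30 °C; 1 = growth at the plate median or of vehicle wells; lower values mean less growth of the strain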
CONDITION SUMMARY: S. cerevisiae deletion strains, growth OD, locus YOR069W, strain VPS5, stronger effect = lower value
Screen size: about 5,500 compounds; about 2,000 (36%) were called active. About 18% were inconclusive and are not listed. This is one part of the list.
READOUT TYPE: normalized growth
API doc: respond with a numeric literal and nothing else, no unit.

CCCCC/C=C\C/C=C\C/C=C\C/C=C\CCCC(=O)O :: 0.99
COc1cc2ccc(=O)oc2c2ccoc12 :: 0.988

Per the records, this compound ( CCOc1nc2cccc(C(=O)OC(C)OC(=O)OC3CCCCC3)c2n1Cc1ccc(-c2ccccc2-c2nn[nH]n2)cc1 (stereo unspecified) ) has normalized growth equal to 1

Per the records, this compound ( O=C1OC(=O)C2C3CCC(O3)C12 (stereo unspecified) ) has normalized growth equal to 1.02

Per the records, this compound ( Cc1c(N(C)CS(=O)(=O)O)c(=O)n(-c2ccccc2)n1C ) has normalized growth equal to 0.984

Per the records, this compound ( COc1c2occc2cc2ccc(=O)oc12 ) has normalized growth equal to 0.991

====

ASSAY: chemical genetic growth profiling, strain panel (AID 1159580);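 also: tested at 20 µM; growth read once vehicle control cultures reached saturation at 30 °C; 1 = growth at the plate median or of vehicle wells; lower values mean less growth of the strain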
CONDITION SUMMARY: S. cerevisiae deletion strains, growth OD, locus YDR195W, strain ref2
The campaign covered roughly 5,500 compounds. About 2,000 (36%) were called active. Inconclusive results (about 18%) are left out. Cut-off read from the data, not from the text of the source: active = normalized growth mostly below about 0.91 (no sharp cut-off); inconclusive = no clear call, values can overlap the other calls; inactive = mostly above about 0.92. The list shows a part of the results.
Hello, when you answer, please use one of the following outcomes: active, inactive

Solved cases below.
OC[C@@H](O)C(O[C@@H]1O[C@H](CO)[C@H](O)[C@H](O)[C@H]1O)[C@H](O)[C@@H](O)CO (some centres not stated) :: inactive
O=c1[nH]c2ccccc2n1C1CCN(CCCC(c2ccc(F)cc2)c2ccc(F)cc2)CC1 :: inactive
O=c1cc(-c2ccc(O)cc2)oc2cc(O[C@@H]3O[C@H](CO)[C@@H](O)[C@H](O)[C@H]3O[C@@H]3OC[C@](O)(CO)[C@H]3O)cc(O)c12 :: inactive
CC(C)=CCOc1cc2oc(=O)ccc2cc1O :: inactive

*Q* Kindly provide the recorded test outcome for the following compound: O=C(CCCN1CC=C(n2c(=O)[nH]c3ccccc32)CC1)c1ccc(F)cc1
*A* inactive

*Q* Kindly provide the recorded test outcome for the following compound: Cn1cnc([N+](=O)[O-])c1Sc1ncnc2nc[nH]c12
*A* inactive

*Q* Kindly provide the recorded test outcome for the following compound: Cc1nccc2c1[nH]c1ccccc12
*A* inactive

*Q* Kindly provide the recorded test outcome for the following compound: CC(C)(O)CC[C@@H](O)[C@](C)(O)C1CC[C@@]2(O)C3=CC(=O)C4C[C@@H](O)[C@@H](O)C[C@]4(C)C3CC[C@]12C (some centres not stated)
*A* inactive

*Q* Kindly provide the recorded test outcome for the following compound: COc1c(O)cc(O)cc1O
*A* inactive

*Q* Kindly provide the recorded test outcome for the following compound: CCCC(=O)Nc1ncnc2c1ncn2C1O[C@@H]2COP(=O)(O)O[C@H]2[C@H]1OC(=O)CCC (some centres not stated)
*A* inactive

*Q* Kindly provide the recorded test outcome for the following compound: Cn1nnnc1SCC1=C(C(=O)O)N2C(=O)C(NC(=O)C(OC=O)c3ccccc3)C2SC1 (configuration not stated)
*A* inactive

*Q* Kindly provide the recorded test outcome for the following compound: CC(C(=O)O)c1ccc(N2Cc3ccccc3C2=O)cc1 (configuration not stated)
*A* inactive

*Q* Kindly provide the recorded test outcome for the following compound: Cc1cc(O)c2c(c1O)C(=O)c1c(O)cc(C)c(O)c1C2=O
*A* inactive

*Q* Kindly provide the recorded test outcome for the following compound: C=C(C)c1cc2cc(C(C)=O)c(O)cc2o1
*A* active

*Q* Kindly provide the recorded test outcome for the following compound: CC(=O)OCC(=O)[C@@]1(O)CCC2C3CCC4=CC(=O)CC[C@]4(C)[C@@]3(F)[C@@H](O)C[C@@]21C (some centres not stated)
*A* inactive

*Q* Kindly provide the recorded test outcome for the following compound: COc1cc2ccc(=O)oc2cc1O
*A* inactive

*Q* Kindly provide the recorded test outcome for the following compound: Cn1c(=O)[nH]c(=O)c2[nH]cnc21
*A* inactive

*Q* Kindly provide the recorded test outcome for the following compound: CC1(C)C[C@@H]2C(=O)CC[C@H]3O[C@]3(C)CC[C@H]21
*A* inactive

*Q* Kindly provide the recorded test outcome for the following compound: c1ccc2c(c1)[nH]c1cnccc12
*A* inactive

*Q* Kindly provide the recorded test outcome for the following compound: CN1Cc2c(N)cccc2C(c2ccccc2)C1 (configuration not stated)
*A* inactive

*Q* Kindly provide the recorded test outcome for the following compound: O=C(O)c1cc2cc(Cl)ccc2[nH]1
*A* inactive

*Q* Kindly provide the recorded test outcome for the following compound: Cc1c(N(C)CS(=O)(=O)O)c(=O)n(-c2ccccc2)n1C
*A* inactive

====

Quick reference for normalized growth among some compounds
ASSAY: chemical genetic growth profiling, strain panel (AID 1159580);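 also: tested at 20 µM; growth read once vehicle control cultures reached saturation at 30 °C; 1 = growth at the plate median or of vehicle wells; lower values mean less growth of the strain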
CONDITION SUMMARY: S. cerevisiae deletion strains, growth OD, locus YBR229C, strain ROT2, stronger effect = lower value
The whole screen tested about 5,500 compounds, of which about 2,000 (36%) were called active. Roughly 18% stayed inconclusive and do not appear here. The list shows a part of the results.

Here's what some known entries look like.
CC(=O)OC1CCC23C(=O)OC45CCC(C6=CC(=O)OC6)C4(C)CCC2C5CCC3(O)C1 (stereo not given) :: 1.01 (inactive)
CCCCC(=O)O[C@H]1CCC2C3CCc4cc(O)ccc4C3CC[C@@]21C (stereo not given in full) :: 0.943 (inactive)
CC(=O)OC1CCC2C3CCc4cc(O)ccc4C3CCC12C (stereo not given) :: 1.01 (inactive)
CCC(=O)O[C@H]1CCC2C3CCc4cc(O)ccc4C3CC[C@@]21C (stereo not given in full) :: 0.999 (inactive)

Per the records, this compound ( CC1=C2CCC3C(CC[C@]4(C)C(=O)CCC34)[C@@]2(C)CCC1=O (stereo not given in full) ) has normalized growth equal to 0.981 (inactive)

Per the records, this compound ( C[C@]12CCC3c4ccc(O)cc4CCC3C1CC[C@@H]2OC(=O)CCC1CCCC1 (stereo not given in full) ) has normalized growth equal to 0.961 (inactive)

Per the records, this compound ( C[C@]12CCC3C(CC[C@H]4CC(=O)CC[C@]34C)C1CCC2=O (stereo not given in full) ) has normalized growth equal to 0.964 (inactive)

Per the records, this compound ( CC(C)CCCC(C)C1CCC2C3CCC4CC(=O)CCC4(C)C3CCC12C (stereo not given) ) has normalized growth equal to 1 (inactive)

Per the records, this compound ( CC(=O)Oc1ccc2c(c1)CCC1C2CC[C@@]2(C)C1CC[C@@H]2OC(C)=O (stereo not given in full) ) has normalized growth equal to 0.94 (inactive)

Per the records, this compound ( Fc1ccc(C(c2ccc(F)cc2)N2CCN(C/C=C/c3ccccc3)CC2)cc1 ) has normalized growth equal to 0.989 (inactive)
